The measurements presented in this section are drawn from PubChem BioAssay AID493244.

# TARGET_DESC: Troponin I, cardiac muscle (Homo sapiens) + Troponin T, cardiac muscle (Homo sapiens) + Troponin C, slow skeletal and cardiac muscles (Homo sapiens) (UniProt P19429+P45379+P63316)
# ASSAY_PROTOCOL: cardiac RTF calcium sensitivity inhibitors, primary screen, biochemical, IANBD-TnC fluorescence, EC70 calcium (AID 493244);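 further: assay run at fixed EC70 calcium of 1.6 mM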
# CONDITION_CONTEXT: IANBD-labeled cardiac RTF, Ca2+ fluorescence; at 7.15 µM; hits give high values
Among all 340,000 compounds or so, about 390 (0.11%) were called active. Many of the other results were omitted from the sample, so actives are more common in it than they were.
Provide the reported inhibition of each item.
The reply should contain only the number, in %.

Reported inhibition ( COc1ccc(C(F)(F)F)cc1N/C=C\c1nnnn1-c1ccc(C)cc1 ) = -1.14

Reported inhibition ( Cc1ccc(NC(=O)C2CC2)cc1S(=O)(=O)N1CCOCC1 ) = 5.9

Reported inhibition ( CC(C)C[C@H]1CN=C(Nc2ccccc2)N1CC1CCCCC1 ) = -2.92

Reported inhibition ( CC(C(=O)NC1CCCCC1)N1C(=O)c2cccc3cccc1c23 (stereo unspecified) ) = 5.31

Reported inhibition ( CCNC(=S)NCC ) = -5.85

Reported inhibition ( Cc1ccc(NC(=O)C2CCC(C(C)(C)C)CC2)cc1S(=O)(=O)N1CCOCC1 (stereo unspecified) ) = -8.96

----------
# TARGET_DESC: Troponin I, cardiac muscle (Homo sapiens) + Troponin T, cardiac muscle (Homo sapiens) + Troponin C, slow skeletal and cardiac muscles (Homo sapiens) (UniProt P19429+P45379+P63316)
# ASSAY_PROTOCOL: cardiac RTF calcium sensitivity inhibitors, primary screen, biochemical, IANBD-TnC fluorescence, EC70 calcium (AID 493244);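 further: assay run at fixed EC70 calcium of 1.6 mM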
# CONDITION_CONTEXT: IANBD-labeled cardiac RTF, Ca2+ fluorescence; at 7.15 µM; hits give high values
In all, about 340,000 compounds went through this assay and about 390 (0.11%) were called active. Only a selection was taken, and actives are over-represented in it overall.
ASSAY_READOUT: inhibition (%)
The reply should contain only the number, in %.

Reported inhibition ( CC1CC(C)CN(C(=O)CSc2ccsc2[N+](=O)[O-])C1 (stereo not drawn) ) = -12.4

Reported inhibition ( C/C(=N\NC(=O)C(N)=O)c1ccc2c(c1)OCCO2 ) = 17.1

Reported inhibition ( COc1ccccc1C(=O)N1CCNC(=O)C1CC(=O)Nc1ccc(Cl)cc1 (stereo not drawn) ) = 1.41

Reported inhibition ( COC(=O)c1ccc(COC(=O)CNC(=O)c2cccc(OC)c2)o1 ) = -10.2

Reported inhibition ( Cc1ccc(CN2CCNC(=O)C2CC(=O)NCc2csc(C(C)C)n2)cc1 (stereo not drawn) ) = -0.36

Reported inhibition ( O=C(Nc1cccnc1)c1cc2cc(Br)ccc2oc1=O ) = 3.93

Reported inhibition ( CCc1ccc(N2CC(C(=O)Nc3ccc(S(=O)(=O)Nc4nccs4)cc3)CC2=O)cc1 (stereo not drawn) ) = 10.1

Reported inhibition ( COc1cc(OC)c2c(c1)OC(=O)CC2c1cc(OC)c(OC)c(OC)c1 (stereo not drawn) ) = -1.64

Reported inhibition ( COc1cc(OC)cc(C(=O)NCC(=O)OCc2csc(-c3ccccc3)n2)c1 ) = 17.6

Reported inhibition ( C/C(=N\NC(=O)COc1ccc(C)cc1[N+](=O)[O-])c1ccc2c(c1)OCCO2 ) = -7.39

Reported inhibition ( CC(C)c1cc(C(=O)N/N=C/c2ccoc2)c(O)c(C(C)C)c1 ) = -3.15

Reported inhibition ( CCCCn1c(N)c(N(CC(C)C)C(=O)c2cccc(S(=O)(=O)N3CC(C)OC(C)C3)c2)c(=O)[nH]c1=O (stereo not drawn) ) = -3.78

Reported inhibition ( O=C(COC(=O)c1ccc(NS(=O)(=O)c2cccs2)cc1O)Nc1ccc(F)cc1 ) = -3.11
